System: 134 cancer cell lines
Assay: Cell viability assay (ATPlite, 72 hours), IC50 on cancer cell line panel
Conditions: Homo sapiens, DoTc2-4510, read-out: IC50 in cell proliferation assay
Kindly state pIC50 for each of the entries shown.
One number for each entry, as −log10 of the molar value.

Exercise: Requested read-out: pIC50. Entry: C=CC(=O)N1CCC[C@@H](n2nc(-c3ccc(Oc4ccccc4)cc3)c3c(N)ncnc32)C1 [ibrutinib]
Key: 6.68

Now look at this one.
Exercise: Requested read-out: pIC50. Entry: C[C@H]1Oc2cc(cnc2N)-c2c(nn(C)c2C#N)CN(C)C(=O)c2ccc(F)cc21 [lorlatinib]
Key: 7.62

###

Target: panel of 255 wild-type kinases (Homo sapiens)
Assay: Kinase panel profiling at 1 µmol/L (MSA or IMAP), percentage inhibition
Format: biochemical
Settings: kinase ROS; 1 µmol/L single concentration; read-out: %-inhibition at 1 µmol/L, ROS
inhibition at 1 µM vs 60%: at or above is criterion met, below is criterion not met.

Exercise: Please tell me: is the molecule CCN1C(=O)N(c2c(F)c(OC)cc(OC)c2F)Cc2cnc3[nH]c(CN4CCOCC4)cc3c21 [pemigatinib] at or over 60% in terms of inhibition at 1 µM?
Key: criterion not met

Continuing:
Exercise: Please tell me: is the molecule COc1ccc(CN2C3CC2CN(c2ccc(-c4cc(OCC(C)(C)O)cn5ncc(C#N)c45)cn2)C3)cn1 [selpercatinib] at or over 60% in terms of inhibition at 1 µM?
Key: criterion met

Exercise: Follow-up entry: FC(F)(F)c1ccc(CNc2ccc(Cc3c[nH]c4ncc(Cl)cc34)cn2)cn1 [pexidartinib]
Key: criterion not met

Exercise: Follow-up entry: Cc1cc(Nc2ncnc3ccc(NC4=NC(C)(C)CO4)cc23)ccc1Oc1ccn2ncnc2c1 [tucatinib]
Key: criterion not met

Exercise: Follow-up entry: Cn1cc(-c2cc3c(N4CCN(c5ncc([C@@](C)(N)c6ccc(F)cc6)cn5)CC4)ncnn3c2)cn1 [avapritinib]
Key: criterion met

Exercise: Follow-up entry: C[C@H]1Oc2cc(cnc2N)-c2c(nn(C)c2C#N)CN(C)C(=O)c2ccc(F)cc21 [lorlatinib]
Key: criterion met

Exercise: Follow-up entry: CCc1nc(C(N)=O)c(Nc2ccc(N3CCC(N4CCN(C)CC4)CC3)c(OC)c2)nc1NC1CCOCC1 [gilteritinib]
Key: criterion met

###

Biological target: panel of 255 wild-type kinases (Homo sapiens)
Test: Kinase panel profiling at 1 µmol/L (MSA or IMAP), percentage inhibition
Type: biochemical
Details: PAK5; 1 µmol/L single concentration; read-out: %-inhibition, PAK5
Property: inhibition at 1 µM (%)
Numbers only, in %.

Exercise: Requested read-out: inhibition at 1 µM. Entry: FC(F)(F)c1ccc(CNc2ccc(Cc3c[nH]c4ncc(Cl)cc34)cn2)cn1 [pexidartinib]
Key: 7

Exercise: Follow-up entry: Cc1nc(NC(=O)N2CCC[C@H]2C(N)=O)sc1-c1ccnc(C(C)(C)C(F)(F)F)c1 [alpelisib]
Key: -2.58

Exercise: Follow-up entry: COC(=O)N[C@@H](C)CNc1nccc(-c2cn(C(C)C)nc2-c2cc(Cl)cc(NS(C)(=O)=O)c2F)n1 [encorafenib]
Key: 0.399

Exercise: Follow-up entry: COc1cc2ncnc(Nc3ccc(F)c(Cl)c3)c2cc1NC(=O)/C=C/CN1CCCCC1 [dacomitinib]
Key: 4.29

Exercise: Follow-up entry: C[C@H](Nc1ncnc2nc[nH]c12)c1cc2cccc(Cl)c2c(=O)n1-c1ccccc1 [duvelisib]
Key: -1

Exercise: Follow-up entry: COc1ccc(CN2C3CC2CN(c2ccc(-c4cc(OCC(C)(C)O)cn5ncc(C#N)c45)cn2)C3)cn1 [selpercatinib]
Key: 9

Exercise: Follow-up entry: Cn1cnc2c(F)c(Nc3ccc(Br)cc3F)c(C(=O)NOCCO)cc21 [binimetinib]
Key: 5

Exercise: Follow-up entry: CCn1c(=O)c(-c2cc(NC(=O)Nc3ccccc3)c(F)cc2Br)cc2cnc(NC)cc21 [ripretinib]
Key: 1.9

Give me inhibition at 1 µM for each of these compounds, listed below.
1. CCN1CCN(c2ccc(Nc3cc(N(C)C(=O)Nc4c(Cl)c(OC)cc(OC)c4Cl)ncn3)cc2)CC1 [infigratinib]
2. Cn1cnc2c(F)c(Nc3ccc(Br)cc3Cl)c(C(=O)NOCCO)cc21 [selumetinib]
3. C=CC(=O)N1CCC([C@@H]2CCNc3c(C(N)=O)c(-c4ccc(Oc5ccccc5)cc4)nn32)CC1 [zanubrutinib]
4. Cc1cc(Nc2ncnc3ccc(NC4=NC(C)(C)CO4)cc23)ccc1Oc1ccn2ncnc2c1 [tucatinib]

Key:
1. 2.49
2. 0.473
3. 0.606
4. 3.53
